Listing of entries alongside the reported GI50.
Tested on: MDA-N
Assay: NCI tumour cell line growth inhibition, 48 h
Activity calls are given as the source filed them. Cut-off read from the data, not from the text of the source: active = GI50 up to about 1.1 µM and inactive = higher.

Worked set:
{"columns": ["compound", "test target", "GI50"],
 "data": [
  ["CC(=O)SC(C[N+](=O)[O-])c1ccc2c(c1)OCO2 (stereo not given)", "MDA-N", "2.1 µM (inactive)"],
  ["O=C(NCc1ccccc1)c1c(O)nc2ccccc2c1O", "MDA-N", "> 100 µM (inactive)"]
]}

I'd like to know its GI50. The compound in question is COc1ccc(C(=O)c2nc3ccccc3nc2N2CCN(c3ccccc3)CC2)cc1OC
> 100 µM (inactive)

I'd like to know its GI50. The compound in question is Cc1ccc(/C=C/C(=N/NC(=O)N/N=C(/C=C/c2ccc(C)cc2)C(C)(C)CN2CCCCC2)C(C)(C)CN2CCCCC2)cc1
1.52 µM (inactive)

I'd like to know its GI50. The compound in question is COc1cc(C(=O)CBr)c(OC)cc1C
> 100 µM (inactive)

###

System: OVCAR-5
Test: NCI tumour cell line growth inhibition, 48 h
Activity calls are given as the source filed them. Rule as the data show it: active = GI50 up to about 1.1 µM and inactive = higher.
# output must be one of 1 (yes) for active, 0 (no) for inactive

Below, 6 compounds whose answers are already recorded.
{"columns": ["compound", "test target", "group label"],
 "data": [
  ["C=C1C(=O)O[C@H]2[C@@H]3O[C@@](C)(CC/C=C(\\C)CCC[C@@H]2C)[C@H](O)C[C@@H]13", "OVCAR-5", "0 (no)"],
  ["CC(C#N)NCc1ccc(C(C)NC(C)C#N)cc1 (configuration not stated)", "OVCAR-5", "0 (no)"],
  ["CN(CCCNC(=O)c1c2ccc3ccccc3c2nn1C)CCCNC(=O)c1c2ccc3ccccc3c2nn1C", "OVCAR-5", "0 (no)"],
  ["Cc1ccc(SCC(CSCCO)OCn2cnc3c2N=C(N)NC32OCCO2)cc1 (configuration not stated)", "OVCAR-5", "0 (no)"],
  ["NC1=NC(c2ccccc2)CC(c2cc(Cl)ccc2O)=N1 (configuration not stated)", "OVCAR-5", "0 (no)"],
  ["Cc1cc2c(=O)c3ccccc3[nH]c2c(C(N)=O)c1C", "OVCAR-5", "0 (no)"]
]}

Hi, sorry to bother you, what did the test record for Nc1cccc(S(=O)(=O)Nc2nnc(S(N)(=O)=O)s2)c1 ?
0 (no)

Hi, sorry to bother you, what did the test record for CC(C)Nc1n[nH]c(=O)n1C(C)C ?
0 (no)

Hi, sorry to bother you, what did the test record for Oc1ccccc1/C=N/c1ccc(Oc2ccc(Cl)cc2)c(Cl)c1 ?
0 (no)

Hi, sorry to bother you, what did the test record for CC1(C)CC(=O)c2c(-c3ccc(Cl)cc3)c(C#N)c(=S)n(C3OC(CO)C(O)C(O)C3O)c2C1 (configuration not stated) ?
0 (no)

Hi, sorry to bother you, what did the test record for N#Cc1nc(C2CCC2)oc1N ?
0 (no)

Hi, sorry to bother you, what did the test record for CCOC(=O)c1nc2ccccc2nc1Oc1ccc(F)cc1 ?
0 (no)

Hi, sorry to bother you, what did the test record for CC[C@@]1(O)C(=O)OCc2c1cc1n(c2=O)Cc2cc3cc(OC)ccc3nc2-1 ?
1 (yes)

Hi, sorry to bother you, what did the test record for CC(C)N1C=[N+](C(C)C)CC1 ?
0 (no)

Hi, sorry to bother you, what did the test record for C=C1[C@H]2O[C@H]2[C@@H](OC(C)=O)[C@@]2(C)[C@@H](OC(C)=O)C[C@@H](OC(=O)CCC)[C@@](C)(O)[C@@H]2[C@@H](OC(C)=O)[C@]2(O)[C@@H](C)C(=O)O[C@H]2[C@H]1Cl ?
0 (no)

Hi, sorry to bother you, what did the test record for C=C(Br)CN(C(C)=O)C1CCCCC1 ?
0 (no)

Hi, sorry to bother you, what did the test record for CC(C)C(Sc1nc(-c2ccccc2)c(-c2ccccc2)[nH]1)c1n[nH]c(=S)n1-c1ccccc1 (configuration not stated) ?
0 (no)

Hi, sorry to bother you, what did the test record for C/C(=N\O)c1ccc(Nc2c3ccccc3nc3occc23)cc1 ?
0 (no)
